MEASURED ON: T1, ZFP SBS#1095 (synthetic)
T1 chain: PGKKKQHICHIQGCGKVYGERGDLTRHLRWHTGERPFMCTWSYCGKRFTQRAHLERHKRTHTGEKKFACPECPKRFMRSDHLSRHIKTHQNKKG
EXPERIMENTAL DETAILS: EMSA
CONDITION LABEL: tags: MBP fusion
RECORDED ENDPOINT: Kd (nM)

| BINDER | OBSERVED VALUE |
| --- | --- |
| GGGGGAGCC (dsDNA) DNA 1: GGGGGAGCC DNA 2: GGCTCCCCC | 0.395 |
